Here, each record is paired with measured melting point data.
VALUE_TYPE: melting point

COMPOUND	OBSERVED_MEASUREMENT
N#Cc1cnc2ccnn2c1NCc1ccccc1 [compound 28]	125 °C
CSc1nc(NCc2ccncc2)n2nccc2n1 [compound 40]	136 °C
CSc1nc2ccnn2c(Nc2ccc3c(c2)OCO3)c1C#N [compound 211]	158 to 159 °C
CSc1nc2ccnn2c(NCCc2ccncc2)c1C#N [compound 215]	184 to 185 °C
CSc1nc2ccnn2c(Nc2ccccc2C#N)c1C#N [compound 214]	206 to 208 °C
CCSc1nc2ccnn2c(NCc2ccncc2)c1C#N [compound 68]	196 to 196.4 °C
CSc1nc2ccnn2c(NCc2ccccc2)c1[N+](=O)[O-] [compound 125]	136.5 to 138.5 °C
CSc1nc2cc(C)nn2c(Cl)c1C#N [compound 185]	182 to 187 °C
CSc1nc2ccnn2c(NCCC2OCCO2)c1C#N [compound 210]	96 to 97 °C
CSc1nc2ccnn2c(Nc2cccc(S(=O)(=O)N(C)C)c2)c1C#N [compound 151]	205 to 208 °C
CSc1nc2ccnn2c(NCc2ccncc2)c1S(C)(=O)=O [compound 63]	195 to 196 °C
CSc1nc2nc(SC)c(C#N)c(NCc3ccncc3)n2n1 [compound 38]	230 to 233 °C
CCOC(=O)CNc1c(C#N)c(SC)nc2ccnn12 [compound 13]	184 to 185 °C
CSc1nc2nc3ccccc3n2c(NCc2ccccc2)c1C#N [compound 47]	233 °C
CCOCSc1nc2ccnn2c(NCc2ccncc2)c1C#N [compound 118]	160 to 161.6 °C
COC(=O)c1c(SC)nc2ccnn2c1NCc1ccccc1 [compound 120]	124.5 to 126.5 °C
CSc1nc2ccnn2c(NOc2ccccc2)c1C#N [compound 179]	> 250 °C
N#Cc1c(SC2CCCC2)nc2ccnn2c1NCc1ccncc1 [compound 105]	153.4 to 155.4 °C
C#CCSc1nc2ccnn2c(NCc2ccncc2)c1C#N [compound 96]	208.5 to 208.7 °C
CSc1nc2ccnn2c(NCc2ccncc2)c1C(=O)O [compound 129]	155 to 157 °C
CSc1nc2ccnn2c(NCc2ccncc2)c1C#N [Compound No. 3]	153 to 154 °C
CSc1nc2ccnn2c(NC2CCCC2)c1C#N [compound 79]	118 °C
CSc1nc2ccnn2c(Nc2ccc(NC(C)=O)cc2)c1C#N [compound 193]	> 280 °C
CSc1nc2ccnn2c(NCc2cccs2)c1C#N [compound 180]	142 °C
COC(=O)c1ccc(Nc2c(C#N)c(SC)nc3ccnn23)cc1 [compound 171]	205 to 206 °C
C#CCNc1c(S(=O)(=O)c2ccccc2)c(SC)nc2ccnn12 [compound 60]	162 to 163 °C
CCOC(=O)c1c(SC)nc2ccnn2c1Nc1ccc(C#N)cc1 [compound 224]	178 °C
C=CCONc1c(C#N)c(SC)nc2ccnn12 [compound 174]	129 to 130 °C
CSc1nc2ccnn2c(NCCc2ccccn2)c1C#N [compound 206]	138 to 139 °C

====

VALUE_TYPE: melting point

MOLECULE	VALUE_TYPE	OBSERVED_MEASUREMENT
COc1nc2ccnn2c(NCC2OCCO2)c1C#N	melting point	148.3 to 149.7 °C
N#Cc1c(SCc2ccccc2)nc2ccnn2c1N	melting point	245.6 to 245.9 °C
CSc1nc2cc(-c3ccccc3)nn2c(N)c1C#N	melting point	233 °C
N#Cc1c(Cc2ccccc2)nc2ccnn2c1NCc1ccccc1	melting point	163 °C
CSc1nc2ccnn2c(Nc2cccc(S(N)(=O)=O)c2)c1C#N	melting point	> 280 °C
C#CCSc1nc2ccnn2c(NCc2ccccc2)c1C#N	melting point	142.2 to 144.2 °C
CCOC(=O)c1c(SC)nc2ccnn2c1Nc1cccc([N+](=O)[O-])c1	melting point	166 to 168 °C
CSc1nc2ccnn2c(N)c1S(C)(=O)=O	melting point	230 to 233 °C
CSc1nc2ccnn2c(Nc2ccc(O)cc2)c1C#N	melting point	250 to 256 °C
CSc1nc2ccnn2c(NCOCc2ccccc2)c1C#N	melting point	63 to 64 °C
CCOC(=O)c1ccc(Nc2c(C#N)c(SC)nc3ccnn23)cc1	melting point	191 to 192 °C
CSc1nc2ccnn2c(Nc2ccc3ncsc3c2)c1C#N	melting point	140 to 141 °C
COCSc1nc2ccnn2c(NCc2ccncc2)c1C#N	melting point	164 to 165.5 °C (dec.)
N#Cc1c(SC2CCCC2)nc2ccnn2c1NCc1ccccc1	melting point	115.8 to 116.6 °C
CSc1nc2ccnn2c(NCc2ccncc2)c1C(=O)OCc1ccccc1	melting point	122 to 123 °C
CSc1nc2ccnn2c(NCc2cccc3ccccc23)c1C#N	melting point	195 °C
CCC(CC)Sc1nc2ccnn2c(NCc2ccccc2)c1C#N	melting point	107 to 108.3 °C
CSc1nc2ccnn2c(Nc2cccc(C#N)c2)c1C(=O)OCc1ccccc1	melting point	141 to 142 °C
CSc1nc2ccnn2c(NCc2ccccn2)c1C#N	melting point	190 °C
CSc1nc2ccnn2c(NCc2ccccc2Cl)c1C#N	melting point	160 °C
CSc1nc2ccnn2c(NCC2CCCCO2)c1C#N (stereo not drawn)	melting point	121 to 122 °C

====

Here, each record is paired with measured melting point data.

MOLECULE	melting point
CSc1nc2ccnn2c(Nc2ccc(S(C)(=O)=O)cc2)c1C#N [compound 201]	241 to 244 °C
CSc1nc2ccnn2c(Nc2ccc(C(=O)O)cc2)c1C#N [compound 176]	> 250 °C
CSc1nc2ccnn2c(NCc2ccccc2)c1C#N [Compound No. 2]	165 °C
CSc1nc2ccnn2c(Nc2cccc(C(=O)O)c2)c1C#N [compound 195]	168 to 171 °C
COC(=O)c1c(SC)nc2ccnn2c1NCc1ccccc1 [compound 121]	158.5 to 160.5 °C
CSc1nc2ccnn2c(NCc2ncc(C(F)(F)F)cc2Cl)c1C#N [compound 207]	185 to 187 °C
CSc1nc2ccnn2c(NCCCn2ccnc2)c1C#N [compound 83]	144 to 146 °C
CSc1nc2ccnn2c(Nc2cccc([N+](=O)[O-])c2)c1C#N [compound 218]	180 to 182 °C
CSc1nc2ccnn2c(Nc2ccc3c(c2)CCC3)c1C#N [compound 165]	146 to 148 °C
N#Cc1c(C2CCCCC2)nc2ccnn2c1N [compound 91]	> 250 °C
CSc1nc2cc(C)nn2c(NCc2ccccc2)c1C#N [compound 187]	204 to 205 °C
CCNc1c(C#N)c(SC)nc2ccnn12 [compound 15]	133 °C
CSc1nc2nc3ccccc3n2c(N)c1C#N [compound 45]	> 250 °C
C=CCSc1nc2ccnn2c(N)c1C#N [compound 75]	258.5 to 259 °C
N#Cc1c(SCc2ccccc2)nc2ccnn2c1NCc1ccncc1 [compound 71]	187.8 to 189.2 °C (dec.)
CSc1nc2ccnn2c(NCCC(C)C)c1C#N [compound 19]	87 to 88 °C
CSc1nc2ccnn2c(N2CCC(C)CC2)c1C#N [compound 160]	118 to 120 °C
CSc1nc2ccnn2c(Nc2ccc(S(=O)(=O)N(C)C)cc2)c1C#N [compound 150]	303 to 306 °C (dec.)
COC(=O)c1cccc(Nc2c(C#N)c(SC)nc3ccnn23)c1 [compound 194]	153 to 155 °C
CNc1c(C#N)c(SC)nc2ccnn12 [compound 14]	216 °C
C#CCNc1nc(SC)nc2ccnn12 [compound 64]	175 °C

====

Here, each record is paired with measured melting point data.

COMPOUND	melting point
CSc1nc2ccnn2c(NCCC2OCCCO2)c1C#N [compound 216]	103 to 104 °C
CSc1nc2ccnn2c(Cl)c1C(=O)OCc1ccccc1 [compound 146]	52 to 54 °C
N#Cc1c(Cc2ccccc2)nc2ccnn2c1NCc1ccncc1 [compound 90]	195 to 198 °C
CCOC(=O)c1c(SC)nc2ccnn2c1Nc1cccc(C#N)c1 [compound 223]	156 to 157 °C
Cc1nc2ccnn2c(NCc2ccncc2)c1C#N [compound 29]	165 °C

====

Here, each record is paired with measured melting point data.

COMPOUND	melting point
CSc1nc2ccnn2c(NCC#N)c1C#N	207 °C
CSc1ccc(Nc2c(C#N)c(SC)nc3ccnn23)cc1	190 to 191 °C
CSc1nc2ccnn2c(Nc2ccc(OC(F)(F)F)cc2)c1C#N	243 to 244 °C
CSc1nc2cc(C)nn2c(O)c1C#N	> 250 °C
COC(=O)c1c(SC)nc2ccnn2c1NC1CCCC1	84.5 to 85.5 °C
CSc1nc2ccnn2c(SCc2ccccc2)c1C#N	138 °C
COc1nc2ccnn2c(NCc2ccncc2)c1C#N	193 to 195 °C
CCN(Cc1ccncc1)c1c(C#N)c(SC)nc2ccnn12	102 to 103 °C
N#Cc1c(-c2ccccc2)nc2ccnn2c1NCc1ccccc1	120 to 122 °C
C#CCNc1c(S(C)(=O)=O)c(SC)nc2ccnn12	175 °C
CSc1nc2ccnn2c(N)c1C#N [compound 1]	> 240 °C
N#Cc1c(SCc2ccccc2)nc2ccnn2c1NCc1ccccc1	121 to 122.2 °C
CSc1nc2nc(SC)c(C#N)c(NCc3ccccc3)n2n1	154 °C
CSc1nc2ccnn2c(OCCOc2ccccc2)c1C#N	125 °C
CSc1nc2ccnn2c(N)c1C#N [compound 41]	> 250 °C
CSc1nc2ccnn2c(NCc2ccncc2)c1[N+](=O)[O-]	154 to 155 °C
CSc1nc2ccnn2c(OCc2ccccc2)c1C#N	194 °C
CSc1nc2cc(C)nn2c(NOCc2ccccc2)c1C#N	155 to 156 °C
CSc1nc2ccnn2c(Nc2ccc(CC#N)cc2)c1C#N	268 to 269 °C
COC(=O)c1ccc(CNc2c(C#N)c(SC)nc3ccnn23)cc1	171 °C
CSc1nc2ccnn2c(NOc2ncc(C(F)(F)F)cc2Cl)c1C#N	182 to 183 °C
